- tgt: ScSho1
- protocol_notes: SPOT peptide array binding signal intensity (averaged, normalized) (arbitrary units (background-subtracted, floor 0; scale differs between SH3 domains)); higher = stronger binding of the SH3 domain to the peptide
Y means recorded SPOT peptide array binding signal intensity is 400 or above; N means it is below 400.

Look over these answered cases.
> print(dat)
            binder  label
1  TKRKRPARLIFYDSK      N
2  KWVRRPKLMTPLTFS      Y
3  DKSRPPRPPPKPLHL      N

## Task Quick check: does `SHRLWLYAAPKRPKT` have SPOT peptide array binding signal intensity greater than or equal to 400?
## Result N

## Task Could you do the same for `GAGERPRLVPRPINV` , please?
## Result N

## Task Could you do the same for `NNFYRPLLRSVLVLL` , please?
## Result N

## Task Could you do the same for `KRKRFNLLLPKPYLT` , please?
## Result Y

## Task Could you do the same for `RKRAPTPPAPSRSEK` , please?
## Result N

## Task Could you do the same for `RRRIAYPFYPFKKLG` , please?
## Result Y

## Task Could you do the same for `APPPPPRRATPEKKP` , please?
## Result N

## Task Could you do the same for `KMSRSPPRPPSLKII` , please?
## Result Y

## Task Could you do the same for `HRRRRVFSIPSLKSI` , please?
## Result Y

## Task Could you do the same for `AHFQPQRTAPKPPIS` , please?
## Result N

## Task Could you do the same for `TIRRRAPLSLLESHT` , please?
## Result Y

## Task Could you do the same for `VSKLRSPNTPRRLRK` , please?
## Result N
